target: HLA-A*02:02; assay: IEDB peptide-MHC binding, cellular MHC/competitive/radioactivity; bounds were set here for any values at or beyond the usual limits of such assays; conditions: source organism: HIV-1 M:B_MN
Quantity Measured: pIC50
Quick note: pIC50 means taking -log10 of the concentration in moles per liter.

Request: What pIC50 value was documented for this sequence, IVGAETFYV ?
Result: 7.21

* * *

molecular target: HLA-A*02:02; experiment: IEDB peptide-MHC binding, cellular MHC/competitive/radioactivity; bounds were set here for any values at or beyond the usual limits of such assays; details: source organism: Homo sapiens
Exercise: state measured IC50 for each of the sequences provided.
Give the number; µM is assumed, so skip it.

Request: Form field: IC50 recorded for EADPTGHSY with HLA-A*02:02 (enter value)
Result: 10

Request: Form field: IC50 recorded for LLGRNSFEV with HLA-A*02:02 (enter value)
Result: 0.087

* * *

target: HLA-A*02:02; experiment: IEDB peptide-MHC binding, cellular MHC/competitive/radioactivity; bounds were set here for any values at or beyond the usual limits of such assays; conditions: source organism: Human immunodeficiency virus 1
Quantity Measured: pIC50
Quick note: pIC50 means taking -log10 of the concentration in moles per liter.

Request: What pIC50 value was documented for this sequence, DPKVKQWPL ?
Result: 5.00

* * *

target: HLA-A*02:02; assay: IEDB peptide-MHC binding, cellular MHC/competitive/radioactivity; bounds were set here for any values at or beyond the usual limits of such assays; settings: source organism: Human immunodeficiency virus type 1 BH10
Quantity Measured: IC50 (nM)
Give the number; nM is assumed, so skip it.

Request: What IC50 value was documented for this sequence, ILKEPVHGV ?
Result: 150

* * *

biological target: HLA-A*02:05; assay: IEDB peptide-MHC binding, cellular MHC/competitive/radioactivity; bounds were set here for any values at or beyond the usual limits of such assays; details: source organism: HIV-1 M:B_MN
Quantity Measured: IC50
Write the numeric value and append its unit.

Request: What IC50 value was documented for this sequence, IVGAETFYV ?
Result: 6.5 nM

* * *

target: HLA-A*02:01; experiment: IEDB peptide-MHC binding, cellular MHC/competitive/radioactivity; bounds were set here for any values at or beyond the usual limits of such assays; settings: source organism: HIV-1 M:B_MN
Quantity Measured: pIC50
Quick note: pIC50 means taking -log10 of the concentration in moles per liter.

Request: What pIC50 value was documented for this sequence, IVGAETFYV ?
Result: 8.46

* * *

molecular target: HLA-A*02:05; assay: IEDB peptide-MHC binding, cellular MHC/competitive/radioactivity; bounds were set here for any values at or beyond the usual limits of such assays; conditions: source organism: Hepatitis B virus subtype adw2
Quantity Measured: IC50 (µM)
Give the number; µM is assumed, so skip it.

Request: What IC50 value was documented for this sequence, YLHTLWKAGI ?
Result: 0.057

Request: What IC50 value was documented for this sequence, LLPIFFCLWV ?
Result: 10

Request: What IC50 value was documented for this sequence, WLSLLVPFV ?
Result: 0.004

Request: What IC50 value was documented for this sequence, STLPETTVVRR ?
Result: 10

* * *

molecular target: HLA-A*02:05; assay: IEDB peptide-MHC binding, cellular MHC/competitive/radioactivity; bounds were set here for any values at or beyond the usual limits of such assays; details: source organism: Human immunodeficiency virus 1
Quantity Measured: IC50
Write the numeric value and append its unit.

Request: What IC50 value was documented for this sequence, DPKVKQWPL ?
Result: 10 µM

* * *

biological target: HLA-A*02:01; test: IEDB peptide-MHC binding, cellular MHC/competitive/radioactivity; bounds were set here for any values at or beyond the usual limits of such assays; conditions: source organism: Hepatitis B virus subtype adw2
Quantity Measured: pIC50
Quick note: pIC50 means taking -log10 of the concentration in moles per liter.

Request: What pIC50 value was documented for this sequence, STLPETTVVRR ?
Result: 5.88

* * *

biological target: HLA-A*02:05; experiment: IEDB peptide-MHC binding, cellular MHC/competitive/radioactivity; bounds were set here for any values at or beyond the usual limits of such assays; conditions: source organism: Human immunodeficiency virus type 1 BH10
Quantity Measured: IC50 (nM)
Give the number; nM is assumed, so skip it.

Request: Form field: IC50 recorded for ILKEPVHGV with HLA-A*02:05 (enter value)
Result: 9.4

* * *

target: HLA-A*02:05; test: IEDB peptide-MHC binding, cellular MHC/competitive/radioactivity; bounds were set here for any values at or beyond the usual limits of such assays; settings: source organism: Homo sapiens
Exercise: state measured pIC50 for each of the sequences provided.
Quick note: pIC50 means taking -log10 of the concentration in moles per liter.

Request: What pIC50 value was documented for this sequence, EADPTGHSY ?
Result: 5.00

Request: What pIC50 value was documented for this sequence, LLGRNSFEV ?
Result: 7.72

* * *

target: HLA-A*02:02; assay: IEDB peptide-MHC binding, cellular MHC/competitive/radioactivity; bounds were set here for any values at or beyond the usual limits of such assays; conditions: source organism: Hepatitis B virus subtype adw2
Quantity Measured: pIC50
Quick note: pIC50 means taking -log10 of the concentration in moles per liter.

Request: What pIC50 value was documented for this sequence, YLHTLWKAGI ?
Result: 7.28

Request: What pIC50 value was documented for this sequence, WLSLLVPFV ?
Result: 7.47

Request: What pIC50 value was documented for this sequence, STLPETTVVRR ?
Result: 5.00
